test system: DAF-12 nuclear receptor (Haemonchus contortus); assay: hcDAF-12 driven luciferase reporter activation – cell-based, luminescence, HEK293, lit1-tk-luc reporter, primary screen (AID 652067); details: HEK293 hcDAF-12 lit1-tk-luc reporter, at 6.8 µM, hits give high values, 0% DMSO, 100% Δ7-dafachronic acid;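 further: 100% = response to 3 µM Δ7-dafachronic acid high control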
About 5,400 (1.5%) of roughly 370,000 compounds were called active. The full list was thinned out, with actives kept by preference.

compound: COc1ccc(-c2cc3ncccc3cn2)cc1
activation, %: 7.99
--
compound: Nn1c(SCC(=O)Nc2cccc3ccccc23)nnc1-c1cc(-c2ccc(F)cc2)n[nH]1
activation, %: -1.52
--
compound: Cc1ccc(-n2nc(N)c3c(=O)oc(N(C)C)nc32)cc1
activation, %: 0.85
--
compound: COc1ccc2nc3n(c(=O)c2c1)-c1ccc(Cl)cc1C(=O)NC3Cc1ccccc1 (stereo not drawn)
activation, %: -2.8
--
compound: COC(=O)C1=C(C)NC(=S)NC1c1ccc(OC)cc1 (stereo not drawn)
activation, %: -0.46
--
compound: CC(C)C(=O)Nc1ccc2c(c1)oc1ccccc12
activation, %: 6.7
--
compound: CN1CCN(c2ccc(NC(=O)c3ccc4c(c3)OCCO4)cc2Cl)CC1
activation, %: 6.55
--
compound: Cc1ccc(SCCC(=O)NC(C(C)C)C(C)C)cc1
activation, %: -0.97
--
compound: CCC(NC(=O)C1C2C=CC3(CN(Cc4ccccc4)C(=O)C13)O2)c1ccccc1 (stereo not drawn)
activation, %: -1.89
--
compound: CCc1ccc(C2=CC(=O)CC(C)(C)C2=O)cc1
activation, %: 1.24
--
compound: O=C(Nc1ccc(N2CCOCC2)c(Cl)c1)c1ccc(S(=O)(=O)N2CCOCC2)cc1
activation, %: -2.07
--
compound: CC(C)C(=O)Nc1oc(-c2ccccc2)cc1C#N
activation, %: -1.35
--
compound: COc1ccc(-c2cc(C3CCN(c4ncccc4[N+](=O)[O-])CC3)[nH]n2)cc1
activation, %: -1.95
--
compound: O=S1(=O)c2c(cccc2N2CC[C@H](O)C2)O[C@@H]2CCN1C2
activation, %: -1.21
--
compound: Cc1cc(NCCc2c[nH]c3ccccc23)ccc1Oc1cccnc1
activation, %: -1.55
--
compound: COC(=O)C1=C(C)N(Cc2ccc(C(F)(F)F)cc2)C(=NCc2ccccc2)NC1c1ccccc1C(F)(F)F (stereo not drawn)
activation, %: 0.56
--
compound: Cc1cc(N=Nc2ccc3ccccc3c2)ccc1O
activation, %: 9.93
--
compound: O=C(NCc1cccnc1)c1nc(-c2cccs2)no1
activation, %: 5.95
